Test system: K4 kissing-loop RNA reporter
Assay: apparent KD of K4 kissing-loop reporter; higher = weaker reporter binding
Settings: Eterna round: R107; input ligand: tryptophan 2.4 mM
Listing of entries alongside the reported apparent KD of K4 kissing-loop reporter.
Give just the number in nM; leave the unit off.

1. AAGCAGUCACUCGACACCAUCGAAGAUGGGCGAGGACCGGUACGGCCGCCACUCGGAGUGAUGUUCUGAUGACUGCAAAAUAAAA [MatMod 9 - Jieux - Exclusion - Tryptophan A] ... 75.6
2. CGGCUCUAUCCUAGUAUUAAGAGGGAGUUGCGAGGACCGGUACGGCCGCCACUCGAAGUAGUUUGGCCAGUGAUGUUGGUCUUAC [Qubeatonza] ... 421

Lab note: next sequence to report on.
Exercise: What value of apparent KD of K4 kissing-loop reporter on K4 kissing-loop RNA reporter does ACUGAGCAUGCGGCCGCCACUUCAGAACGUCGCCCAAAGGGCGACGCCUCCACAGUGAUGUUGUGGAGGACCGGGCAUGUUCAGA [Omei KL Tryp B Exc A v2] have?
Solution: 144

---

Test system: MS2 coat protein
Assay: apparent KD of MS2 coat protein; designed switch direction (-1 OFF switch, 1 ON switch): -1; higher = weaker reporter binding
Conditions: Eterna round: R95; input ligand: microRNA oligo, concentration not stated
Note to self: values exactly at 50 nM are satisfied. So apparent KD of MS2 coat protein at or above 50 nM is satisfied, below is not satisfied.

1. AGUGCGUAUGUGAGGAUAUGCUGGUCCUUGGCUCGGCAGAAGGCACAUGAGGAUCACCCAUGUGGUGUCGUACC [salish99_Bmod_ex4_059] (puzzle: Brourd's mod of Exclusion 4) ... not satisfied

Exercise: Is apparent KD of MS2 coat protein at least 50 nM? Consider CAGAAACAUGAGGAUCACCCAUGUGAGGAUAUGAAAAAGAAAAGAAAAGAAAGAAGAAUCAGAAGGCACAAAGU [salish99-ex1_r3_086] (puzzle: Exclusion 1)
Solution: not satisfied

---

System: K4 kissing-loop RNA reporter;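 further: bound reporter read as fluorescence of individual clusters on recovered sequencing chips by microscopy, with normalized cluster intensities fitted with a binding model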
Experiment: apparent KD of K4 kissing-loop reporter; higher = weaker reporter binding
Conditions: Eterna round: R107; input ligand: theophylline 20 uM
Overview of reported apparent KD of K4 kissing-loop reporter across a group of sequences:
Use nM as the unit, but write only the number.

See these solved cases before continuing.
1. CGCCAGUGAUGUUGGUGCAGCUACCGGGAAGGAGCGCCCAUAAGGGCAGGUAGGUCGCCCGGGCAGUGAUGUUGCCUCAUGCCGC [Exclusion Arginine A GF 22] ... 234
2. CCCGUUGCGGCGGCCGCCACUGACUUAUUGAUUAGGUUGCCAGUGAUGUUGGCCACCGGUCAAUACAGGACCGGGCCAUAGCGGG [Ceisreatte] ... 134
3. AAGCAGUUCUCAAAGAGUACUGCAGGACAGCAGGAUAUAGUGAUGUUGAGAAGGGCUGUCCCGUCUGCAUGAAACAUGCAGACGA [Simply curious] ... 1290
4. GGAUAGGACAGAGGAUAUGGAGAGUCUACAAAGUAGGCUCAUAAUCCUUGAAUGGAAGUGAUGUUUCCAGAAGGCUGUCCUAUCG [FmnBX 17 - #SwitchBubble #StaticStem #Palindromic] ... 101
5. GGAUCCACCAGUGAUGUUGGAAAAUACUCCAAGGAUAUGACGAAAGUCAGAAGGUGGUAGACUGGACAAAGUCCAGUCGGAUCCA [FmnA 27 #SwitchBubble #K4Early] ... 537

Exercise: If you can, please state the reported apparent KD of K4 kissing-loop reporter value of AUUUUUUACAGAAGGAGCGUGUUAUAAUAAUCAUAUUGCUUAGCGAGUGAUGUUCGCUUUACACAGGUAGGUCGCUGUUUAUUUA [JR_Nu_ExcArginiB_Sub029] .
Solution: 180

Exercise: Item under review: AAGUUGAACUGAAGGAGCGAGAAAUAGAAUGUAAGAAUAUAUGCUAGUGAUGUUAGAAAUUCUCAGGUAGGUCGCAGUAAGAAUU [V1] . Reported apparent KD of K4 kissing-loop reporter?
Solution: 510

Exercise: State the recorded apparent KD of K4 kissing-loop reporter for this entry: UGACUACAAGGAAAAUAAUCCUAGUGAUGUUAGGAUAUGCUGAUAAGCAGAAGGAACUGAGAUCGAAAGAUCUCAAAUGUAGUCU [FmnAX 27 Mat Inspired #SwitchBubble #StaticStem #K4Early]
Solution: 102

Exercise: # query: apparent KD of K4 kissing-loop reporter of entry AGUACAAUGGCGGCCGCCACUCAAUGGCAGAUCAAAGAUCUGCAUCACUCAGUGAUGUUGAGUGAGAGGACCGGGCCUUUGUACA [Omei KL Tryp B SS B v7]
Solution: 505

Exercise: So what's the measured apparent KD of K4 kissing-loop reporter for this one? AAGCAGUCAGGAUCGAAGAUCCUGCAAUACCGAGGACCGGUACGGCCGCCACUCGGAGUGAUGUUCCGAAGACUGCAAAAUAAAA [#SwitchBubble 7]
Solution: 57.9

Exercise: Using the record for GAGAACUCUUACGAUACCAGCCGGAGUGAUGUUCCGUGCUUGGACGUAGUAACCCGCACCGGCCCUUGGCAGCGUGGAUCCUAUG [Biorar] , report its apparent KD of K4 kissing-loop reporter.
Solution: 79.3

Exercise: Using the record for `GGAAGGAAGGAAACCAACCAACCAACCGAUACCAGCGGAAGAGAACGCCCUUGGCAGCGGAGAAAGCCAGUGAUGUUGGAAAGAA` , report its apparent KD of K4 kissing-loop reporter.
Solution: 300

Exercise: Requested read-out: apparent KD of K4 kissing-loop reporter. Entry: UGAUAGGACAGAAGGAGCGGAAGUGAUGUUUCCAAAAGAUAUGAUCGACAAAGUCGAUUUUUCCAGGUAGGUCGCUGUCCUAUCU [KL-XARG-B19]
Solution: 100

Exercise: What apparent KD of K4 kissing-loop reporter value was documented for this sequence, CCCGCGGCGGGAAACCGUCGCGGGAAGGAAGGAGCGGCGAAGAAGCCAGGUAGGUCGCCUAUUGACAGUGAUGUUGUUAUAUAGA [#11] ?
Solution: 292

Exercise: Any idea what apparent KD of K4 kissing-loop reporter was measured for CUAUAAGUGCCGAGUGAUGUUCGGCCAAUACGAGGACCGGUACGGCCGCCACUCGGUCAGUGGGUGCCCACCGGGCAUGGCUGAC [Cecezaa] ?
Solution: 227

Exercise: Name the reported apparent KD of K4 kissing-loop reporter value associated with the sequence GCUAUGGUAGGAAGGAGCGCUUACUCAUUAAUAAGAGUGAUGUUCGAUAAUGAGUAUUUAUAGCAGGUAGGUCGCCUACUAUAGC [Arginine B K4 3]
Solution: 247

Exercise: apparent KD of K4 kissing-loop reporter lookup needed for UCGCCGCUCACGGCCGCCACUAAGCCCAAGACCAGAGAGUGAUGUUCUAUCCACGUUUCAAUUUUUAGGACCGGGUGAAAGGCGA [theeternabot_sameState_KL_Trp_B_14] , thanks.
Solution: 625

Exercise: Fill blank: measured apparent KD of K4 kissing-loop reporter of the sequence CCUUUAGGCUCGGCCGCCACUCCAGUGAUGUUGGAGGUGCGUACAGAGCUAGAAAGCGUUAUCAGGAGGACCGGGAGUUUUAACG [Leorte] is ____.
Solution: 101

Exercise: Report apparent KD of K4 kissing-loop reporter for AGUGUUAGGUUAGAUACCAGCCGUCUGUGGAUAAUCCACAGACCGCCAGUGAUGUUGGCAGGCCCUUGGCAGCUAACAGGACAGA [Riedingeus] please.
Solution: 153

Exercise: For the sequence shown here, GCAGUGAUGUUGCUGAUGUACAGUGGGAUACGAGGACCGGUACGGCCGCCACUCGUACAGAACUUGUUAAUACAUCGAUAGGUGA [XIII] , give the reported apparent KD of K4 kissing-loop reporter.
Solution: 837

Exercise: Which apparent KD of K4 kissing-loop reporter value belongs to UGUGAGCUGUCGACAAAAGUCGACUAAAACUAGGAUAUGACGAAAGUCAGAAGGAGUCAAUAAUGGAGUGAUGUUCCUGCUCACU [FmnA 9 U31+A55] ?
Solution: 386

Exercise: So what's the measured apparent KD of K4 kissing-loop reporter for this one? CUGACCAACAGCGAUACCAGCGUGGAGUGAUGUUCCGUGGAUCGGAGUGAUGUUCCGAAGCGCCCUUGGCAGCGCAGAAGCAGGA [Exclusion Theophylline B GF11]
Solution: 150

Exercise: Can you share its apparent KD of K4 kissing-loop reporter? I mean this sequence: AGCAGUGAUGUUGCAUUUAAAAUGACCGAUACCAGUAUCGAUAGAUACCCUUGGCAGCGGAUUUCCGCAACGACUAGGAAACUAG [Ex Theophylline A K4 15]
Solution: 504

These data points were gathered from the supplement of paper PMC9170038.
